Molecular target: T1, human TNFR2 extracellular domain with C-terminal 10×His tag (human, UniProt P20333 23-257)
T1 construct: also called huTNFR2-His; His-tag-huTNFR2
T1 sequence: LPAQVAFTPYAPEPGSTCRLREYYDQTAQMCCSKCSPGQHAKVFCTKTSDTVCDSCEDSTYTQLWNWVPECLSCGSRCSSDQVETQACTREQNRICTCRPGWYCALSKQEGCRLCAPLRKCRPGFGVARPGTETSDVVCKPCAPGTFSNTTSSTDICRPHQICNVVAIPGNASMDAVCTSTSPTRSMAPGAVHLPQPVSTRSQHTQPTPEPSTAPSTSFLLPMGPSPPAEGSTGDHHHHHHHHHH
Assay: BLI (Octet RED96), antibody captured on AHC biosensor, His-tag-huTNFR2 in solution, 1:1 model
Protocol: The following kinetic assay was performed using anti-human IgG Fc capture (AHC) biosensors (ForteBio) in kinetics buffer (PBS, 0.1% Tween-20 and 1% bovine serum albumin): (a) antibody (2 μg/mL) for 300 sec, (b) baseline for 120 sec, (c) association with His-tag-huTNFR2 (2.5, 0.5 and 0 μg/mL) for 420 sec and (d) dissociation for 1200 sec. […] The dissociation constant (Kd) was calculated as the ratio of Koff/Kon.

[
  {
    "BINDER": "SB1901-69 humanized anti-TNFR2 antibody (antibody, V domains shown) VH: QVQLVQSGAEVKKPGASVKVSCKASGYTFTDDYIDWVRQATGQGLEWMGEIYPGSGNTYYNEKFKGRVTMTRDKSISTAYMELSSLRSEDTAVYYCARSQVYGKIAMDHWGQGTLVTVSS VL: DIVMTQSPDSLAVSLGERATINCRASESVDNSGNSFMHWYQQKPGQPPKLLIYRASNLESGVPDRFSGSGAGTDFTLTISSLQAEDVAVYYCQQSKEDPYTFGQGTKVEIK",
    "koff": "0.000513 s⁻¹"
  }
]
